Sourced from the supplement of paper PMC10724198

Test system: Saccharomyces cerevisiae
Assay Explanation: protein stability index of tFT-peptide fusion (C-terminal peptide) (PSI (0-1 scale)); higher = more stable (slower turnover);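 also: PSI is a weighted mean of sequencing reads over stability bins, variants kept only with over 10 reads, mCherry proximal and sfGFP distal, peptide attached via GGGS linker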
Condition Notes: genetic background: das1 deletion; temperature: 37 C
Measure: protein stability index
Answers are plain numbers.

Examples with their reported protein stability index follow.
// query Supply recorded protein stability index for `FAVTRVHLACWG` here.
// result 0.493

// query Give protein stability index for the following sequence: `VCYLMRSLTFAY`
// result 0.494

Then there is this sequence:
// query Write down protein stability index measured for item `GWSRRFFCLFIV`
// result 0.498

----------
Test system: Saccharomyces cerevisiae
Assay Explanation: protein stability index of tFT-peptide fusion (C-terminal peptide) (PSI (0-1 scale)); higher = more stable (slower turnover)
Condition Notes: genetic background: wild type; temperature: 30 C
Measure: protein stability index

// query Complete the entry with protein stability index for `QRSFSLRLSAPV`
// result 0.681

// query Answer with the recorded protein stability index for the sequence listed here: `RARNRPKTEYHI`
// result 0.683

// query Provide only the value of recorded protein stability index for `SGRSRVAGVERR`
// result 0.708

// query Give recorded protein stability index. `FCPPLSFPPPLS`
// result 0.718

// query Entry `LPDVFLSSFFCL` needs its protein stability index filled in; supply it.
// result 0.709

// query Give protein stability index for `CRAGSVGGIRGR`
// result 0.693

Moving on to the next sequence.
// query Please indicate protein stability index recorded for `NKKIEDYDKNKN`
// result 0.684
